Parameter Kapp: see the listing below.
system: DNA; test: Binding affinity to calf thymus DNA; format: nucleic-acid assay; settings: Bos taurus

molecule | Kapp
COc1cc2c(cc1OCCCNC(=O)C(N)CCCCN)CC[n+]1cc3c(OCCCNC(=O)C(N)CCCCN)c(OC)ccc3cc1-2 (centres undefined) | 1.08 10^7/M
COc1cc2c(cc1OCCCNC(=O)C(N)CCCCNC(=O)C(N)CCCCN)CC[n+]1cc3c(OCCCNC(=O)C(N)CCCCNC(=O)C(N)CCCCN)c(OC)ccc3cc1-2 (centres undefined) | 1.15 10^7/M
COc1cc2c(cc1OC)-c1cc3ccc(OC)c(OC)c3c[n+]1CC2 | 8.72 10^3/M
COc1cc2c(cc1OCCCN)CC[n+]1cc3c(OCCCN)c(OC)ccc3cc1-2 | 2.81 10^5/M
